assay: absorption spectrum (maximum absorption wavelength, molar extinction coefficient); type: physicochemical
For each entry below, report its maximum absorption wavelength value.
Give the quantity in nm, number only.

What value of maximum absorption wavelength has been recorded for this entry: COCCOCCOCCOCCOCCOCCOCCN1CCC(CNc2c3c4c5c(c(OC)c(=O)c6c(O)cc(OC)c(c7c(OC)cc(NCC8CCN(CCOCCOCCOCCOCCOCCOCCOC)CC8)c(c2=O)c74)c65)C(C(C)=O)C(C)=C3)CC1 (centres unmarked) [HB-32c-PEG6]
632

What value of maximum absorption wavelength has been recorded for this entry: COc1c2c3c4c(c(NC(CC(N)=O)C(=O)O)c(=O)c5c(NC(CC(N)=O)C(=O)O)cc(OC)c(c6c(OC)cc(O)c(c1=O)c63)c54)C=C(C)C2C(C)=O (centres unmarked) [HB-26c]
614

What value of maximum absorption wavelength has been recorded for this entry: COCCOCCC(=O)OCCOCCNc1c2c3c4c(c(OC)c(=O)c5c(O)cc(OC)c(c6c(OC)cc(NCCOCCOC(=O)CCOCCOC)c(c1=O)c63)c54)CC(C)=C2
625

What value of maximum absorption wavelength has been recorded for this entry: COc1c(O)c2c(=O)cc(OC)c3c4c(OC)cc(=O)c5c(NCCCC(=O)O)c(NCCCC(=O)O)c6c(c(c1CC(C)=C6)c23)c54
620

What value of maximum absorption wavelength has been recorded for this entry: COc1c2c3c4c(c(NC5CCC(O)CC5)c(=O)c5c(NC6CCC(O)CC6)cc(OC)c(c6c(OC)cc(O)c(c1=O)c63)c54)C=C(C)C2C(C)=O (centres unmarked) [HB-17c]
622

What value of maximum absorption wavelength has been recorded for this entry: COCCOCCOCCOCCOCCOCCOCCOCCOCCOCCOCCOCCOCCC(=O)N1CCC(CNc2c3c4c5c(c(OC)c(=O)c6c(NCC7CCN(C(=O)CCOCCOCCOCCOCCOCCOCCOCCOCCOCCOCCOCCOCCOC)CC7)cc(OC)c(c7c(OC)c(Br)c(O)c(c2=O)c47)c65)C(C(C)=O)C(C)=C3)CC1 (centres unmarked) [HB-31d-Br-PEG12]
632

What value of maximum absorption wavelength has been recorded for this entry: COc1c2c3c4c(c(NC5CCC(C(=O)O)CC5)c(=O)c5c(NC6CCC(C(=O)O)CC6)cc(OC)c(c6c(OC)cc(O)c(c1=O)c63)c54)C=C(C)C2C(C)=O (centres unmarked) [HB-14c]
621

What value of maximum absorption wavelength has been recorded for this entry: COCCOCCOCCOCCOCCOCCOCCC(=O)OCCOCCNc1c2c3c4c(c(OC)c(=O)c5c(O)cc(OC)c(c6c(OC)cc(NCCOCCOC(=O)CCOCCOCCOCCOCCOCCOCCOC)c(c1=O)c63)c54)C(C(C)=O)C(C)=C2 (centres unmarked)
628

What value of maximum absorption wavelength has been recorded for this entry: COc1c(NC2CCCC(C(=O)O)C2)c2c(=O)cc(OC)c3c4c(OC)cc(=O)c5c(O)c(NC6CCCC(C(=O)O)C6)c6c(c(c1C(C(C)=O)C(C)=C6)c23)c54 (centres unmarked) [HB-15b]
623

What value of maximum absorption wavelength has been recorded for this entry: COc1c(O)c2c(=O)cc(OC)c3c4c(OC)cc(=O)c5c(NCCC(=O)O)c(NCCC(=O)O)c6c(c(c1C(C(C)=O)C(C)=C6)c23)c54 (centres unmarked) [HB-10a]
620

What value of maximum absorption wavelength has been recorded for this entry: COCCOCCOCCOCCOCCOCCOC(=O)C1CCC(Nc2c(O)c3c(=O)cc(OC)c4c5c(OC)cc(=O)c6c(NC7CCC(C(=O)OCCOCCOCCOCCOCCOCCOC)CC7)c(OC)c7c(c(c2C=C(C)C7C(C)=O)c34)c65)CC1 (centres unmarked) [HB-14b-PEG6]
624

What value of maximum absorption wavelength has been recorded for this entry: COc1c2c3c4c(c(NCCOCCO)c(=O)c5c(O)cc(OC)c(c6c(OC)cc(NCCOCCO)c(c1=O)c63)c54)C=C(C)C2
626

What value of maximum absorption wavelength has been recorded for this entry: COc1c(NO)c2c(=O)cc(OC)c3c4c(OC)cc(=O)c5c(O)c(NO)c6c(c(c1CC(C)=C6)c23)c54 [HC-37b]
622

What value of maximum absorption wavelength has been recorded for this entry: COc1c(NCC2CCC(C(=O)O)CC2)c2c(=O)cc(OC)c3c4c(OC)cc(=O)c5c(O)c(NCC6CCC(C(=O)O)CC6)c6c(c(c1C(C(C)=O)C(C)=C6)c23)c54 (centres unmarked) [HB-13b]
621

What value of maximum absorption wavelength has been recorded for this entry: COCCOC(=O)CCCCCNc1c(NCCCCCC(=O)OCCOC)c2c(=O)cc(OC)c3c4c(OC)cc(=O)c5c(O)c(OC)c6c(c(c1C=C(C)C6)c23)c54
621

What value of maximum absorption wavelength has been recorded for this entry: COCCOCCC(=O)OCCNc1c(NCCOC(=O)CCOCCOC)c2c(=O)cc(OC)c3c4c(OC)cc(=O)c5c(O)c(OC)c6c(c(c1C=C(C)C6C(C)=O)c23)c54 (centres unmarked)
620

What value of maximum absorption wavelength has been recorded for this entry: COCCOCCOCCOCCOCCOCCOCCC(=O)OCCOCCNc1c2c3c4c(c(OC)c(=O)c5c(NCCOCCOC(=O)CCOCCOCCOCCOCCOCCOCCOC)cc(OC)c(c6c(OC)cc(O)c(c1=O)c63)c54)CC(C)=C2
622

What value of maximum absorption wavelength has been recorded for this entry: COc1c(NCS(=O)(=O)O)c2c(=O)cc(OC)c3c4c(OC)cc(=O)c5c(O)c(NCCCS(=O)(=O)O)c6c(c(c1CC(C)=C6)c23)c54 [HC-45b]
618

What value of maximum absorption wavelength has been recorded for this entry: COCCOCCOCCOCCOCCOCCOC(=O)CCCNc1c2c3c4c(c(OC)c(=O)c5c(NCCCC(=O)OCCOCCOCCOCCOCCOCCOC)cc(OC)c(c6c(OC)cc(O)c(c1=O)c63)c54)C(C(C)=O)C(C)=C2 (centres unmarked)
620

What value of maximum absorption wavelength has been recorded for this entry: COc1c2c3c4c(c(NC5CCC(C(=O)O)C5)c(=O)c5c(NC6CCC(C(=O)O)C6)cc(OC)c(c6c(OC)cc(O)c(c1=O)c63)c54)C=C(C)C2C(C)=O (centres unmarked) [HB-19c]
622
